molecular target: Tie2 (Homo sapiens, UniProt Q02763)
Sequence (Q02763 23-1124): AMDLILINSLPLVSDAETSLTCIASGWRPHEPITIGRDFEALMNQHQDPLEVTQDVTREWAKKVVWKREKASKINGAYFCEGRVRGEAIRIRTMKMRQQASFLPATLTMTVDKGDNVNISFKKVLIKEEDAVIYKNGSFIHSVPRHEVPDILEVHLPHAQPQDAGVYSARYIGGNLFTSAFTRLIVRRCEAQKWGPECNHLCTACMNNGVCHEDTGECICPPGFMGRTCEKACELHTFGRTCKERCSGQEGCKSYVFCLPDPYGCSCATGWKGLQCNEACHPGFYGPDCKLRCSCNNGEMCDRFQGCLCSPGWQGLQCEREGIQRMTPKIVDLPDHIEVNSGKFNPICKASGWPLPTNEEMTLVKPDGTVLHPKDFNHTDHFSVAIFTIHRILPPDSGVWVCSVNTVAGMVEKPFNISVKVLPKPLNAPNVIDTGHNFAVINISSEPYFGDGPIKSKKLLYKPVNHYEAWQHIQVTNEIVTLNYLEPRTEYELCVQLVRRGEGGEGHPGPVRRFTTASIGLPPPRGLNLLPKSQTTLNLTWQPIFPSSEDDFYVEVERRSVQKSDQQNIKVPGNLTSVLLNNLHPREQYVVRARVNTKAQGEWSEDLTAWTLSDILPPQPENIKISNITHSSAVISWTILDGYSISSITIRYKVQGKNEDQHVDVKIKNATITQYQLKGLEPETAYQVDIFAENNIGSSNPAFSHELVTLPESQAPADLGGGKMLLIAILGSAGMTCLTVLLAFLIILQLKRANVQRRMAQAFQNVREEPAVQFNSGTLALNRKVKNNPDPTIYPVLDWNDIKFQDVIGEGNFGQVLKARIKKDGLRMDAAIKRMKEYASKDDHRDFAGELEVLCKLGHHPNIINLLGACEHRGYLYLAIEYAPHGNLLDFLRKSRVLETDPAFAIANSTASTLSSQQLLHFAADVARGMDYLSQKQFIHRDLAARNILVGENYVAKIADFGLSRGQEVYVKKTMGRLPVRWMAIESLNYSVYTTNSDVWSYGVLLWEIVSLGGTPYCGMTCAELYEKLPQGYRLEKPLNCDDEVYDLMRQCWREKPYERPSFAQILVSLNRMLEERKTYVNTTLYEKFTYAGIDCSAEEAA
property_label: IC50

Query: Suppose we examine the compound CCCS(=O)(=O)Nc1ccc(F)c(C(=O)c2c[nH]c3ncc(OC)cc23)c1F ; what IC50 value has been reported?
Reply: ≤ 10 µM

###

Each item that follows carries a reported IC50.
target: B-Raf V600E (Homo sapiens, UniProt P15056, V600E); construct: P4254. pFastBacBD-CDC37 BRAF D437-K722-X, V600E; His6 with pFastBac HT leader (TEV site) (N); made in house; host or cells: Sf9 (baculovirus; chaperone CDC37 co-expressed); experiment: AlphaScreen kinase assay, B-Raf V600E; assay type: biochemical; conditions: read-out: IC50, activity toward kinase B-Raf V600E
Sequence (P15056 with tags, fused parts or gaps V600E): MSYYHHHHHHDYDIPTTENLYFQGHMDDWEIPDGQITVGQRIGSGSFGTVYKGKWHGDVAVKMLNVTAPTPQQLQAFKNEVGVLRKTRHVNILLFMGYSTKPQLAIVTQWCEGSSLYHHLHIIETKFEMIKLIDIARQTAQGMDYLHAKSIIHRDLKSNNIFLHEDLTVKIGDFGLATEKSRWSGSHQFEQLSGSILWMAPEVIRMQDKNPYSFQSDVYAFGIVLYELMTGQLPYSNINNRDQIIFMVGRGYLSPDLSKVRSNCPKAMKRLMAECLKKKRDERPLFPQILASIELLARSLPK

O=C(c1c(F)cccc1F)c1c[nH]c2nccc(-c3cc(F)cc(F)c3)c12; ≤ 10 µM

Query: Suppose we examine the compound O=S(=O)(NCc1c[nH]c2ncccc12)c1cc(Cl)c(Cl)s1 ; what IC50 value has been reported?
Reply: ≤ 10 µM

Query: What do you get for O=C(O)/C=C/c1cccc(-c2ccnc3[nH]cc(C(=O)c4ccc(Cl)cc4)c23)c1 ?
Reply: ≤ 10 µM

Query: What do you get for O=C(c1c(F)ccc(OC(F)F)c1F)c1c[nH]c2ncc(-c3cccnc3)cc12 ?
Reply: ≤ 10 µM

Query: What do you get for O=C(c1cc(Cl)cc(Cl)c1)c1c[nH]c2ncc(-c3cccnc3)cc12 ?
Reply: ≤ 10 µM

Query: What do you get for OCc1cccc(-c2ccnc3[nH]cc(Sc4cccc(F)c4)c23)c1 ?
Reply: ≤ 10 µM

Query: What do you get for NC(=O)c1cccc(-c2ccnc3[nH]cc(C(=O)c4ccc(Cl)cc4)c23)c1 ?
Reply: ≤ 10 µM

Query: What do you get for Cc1nc(NCc2ccc(C(F)(F)F)cc2)ccc1Cc1c[nH]c2ncccc12 ?
Reply: ≤ 10 µM

Query: What do you get for CCCCOc1ccc(S(=O)(=O)Nc2ccc(F)c(C(=O)c3c[nH]c4ncccc34)c2F)cc1 ?
Reply: ≤ 10 µM

Query: What do you get for Oc1cccc(Cc2c[nH]c3ncc(-c4cccnc4)cc23)c1F ?
Reply: ≤ 10 µM

Query: What do you get for Clc1ccc(CNc2ccc(Cc3c[nH]c4nccc(Cl)c34)cn2)cc1 ?
Reply: ≤ 10 µM

Query: What do you get for COCCOc1ccc(F)c(C(O)c2c[nH]c3ncc(Br)cc23)c1F (stereo not drawn) ?
Reply: ≤ 10 µM

Query: What do you get for CCCS(=O)(=O)Nc1ccc(Cl)c(C(=O)c2c[nH]c3ncccc23)c1F ?
Reply: ≤ 10 µM

Query: What do you get for CCCS(=O)(=O)Nc1ccc(F)c(C(=O)c2c[nH]c3ncc(OCCN(CC)CC)cc23)c1F ?
Reply: ≤ 10 µM

Query: What do you get for CS(=O)(=O)Nc1cccc(-c2cnc3[nH]cc(C(=O)c4cccc(C(F)(F)F)c4)c3c2)c1 ?
Reply: ≤ 10 µM

###

molecular target: B-Raf (Homo sapiens, UniProt P15056); construct: purchased Upstate Biotechnology; assay: AlphaScreen kinase assay, B-Raf; assay type: biochemical; details: read-out: IC50, activity toward kinase B-Raf
Sequence (P15056 whole entry): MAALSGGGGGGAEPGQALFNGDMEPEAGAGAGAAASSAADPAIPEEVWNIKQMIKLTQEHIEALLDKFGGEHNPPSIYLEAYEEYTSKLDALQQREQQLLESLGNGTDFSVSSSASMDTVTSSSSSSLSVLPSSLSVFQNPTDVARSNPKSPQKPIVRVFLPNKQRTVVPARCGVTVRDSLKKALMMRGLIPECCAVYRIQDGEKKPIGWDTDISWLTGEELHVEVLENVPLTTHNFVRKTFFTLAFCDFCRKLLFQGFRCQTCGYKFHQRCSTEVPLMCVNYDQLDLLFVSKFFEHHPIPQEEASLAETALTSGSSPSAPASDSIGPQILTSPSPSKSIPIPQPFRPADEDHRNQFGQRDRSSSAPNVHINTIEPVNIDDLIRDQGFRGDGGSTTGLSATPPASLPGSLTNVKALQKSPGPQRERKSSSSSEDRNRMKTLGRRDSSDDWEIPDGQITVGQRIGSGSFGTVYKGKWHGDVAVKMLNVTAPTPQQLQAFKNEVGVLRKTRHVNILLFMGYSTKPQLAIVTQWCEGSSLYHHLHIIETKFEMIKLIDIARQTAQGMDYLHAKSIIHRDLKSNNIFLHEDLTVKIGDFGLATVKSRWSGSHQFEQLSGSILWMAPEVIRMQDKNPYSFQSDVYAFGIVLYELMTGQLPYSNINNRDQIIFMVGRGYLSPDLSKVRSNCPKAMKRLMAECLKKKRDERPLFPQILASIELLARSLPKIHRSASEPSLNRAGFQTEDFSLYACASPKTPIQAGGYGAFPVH
pIC50: −log10 of the molar value.
Each item that follows carries a reported pIC50.

CCCC(=O)Nc1ccc(F)c(C(=O)c2c[nH]c3ncc(-c4cccnc4)cc23)c1F; ≥ 5.00
CN(C)S(=O)(=O)Nc1ccc(F)c(C(=O)c2c[nH]c3ncc(Br)cc23)c1F; ≥ 5.00

Query: Suppose we examine the molecule CCCS(=O)(=O)Nc1ccc(F)c(C(=O)c2c[nH]c3ncc(OCC)cc23)c1F ; what pIC50 value has been reported?
Reply: ≥ 5.00

Query: What do you get for Cc1c(O)cccc1C(=O)c1c[nH]c2ncc(-c3cccnc3)cc12 ?
Reply: ≥ 5.00
